- assay.procedure: Stability in PBS buffer at pH 7.4 at 37 degreeC assessed as compound remaining under dark condition measured for 72 hrs by HPLC analysis
- Format: physicochemical
- experimental.setup: read-out: Stability
reported.metric: remaining at 72 h

Qu. Suppose we examine the compound CCN(CC)c1ccc2c(COC(=O)NCCN(C)Cc3c[nH]cc3-c3ccc(OC(C)C)cc3)cc(=O)oc2c1 ; what remaining at 72 h value has been reported?
Ans. > 75%
